# Tested on: K4 kissing-loop RNA reporter;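 further: bound reporter read as fluorescence of individual clusters on recovered sequencing chips by microscopy, with normalized cluster intensities fitted with a binding model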
# assayMethodText: apparent KD of K4 kissing-loop reporter; higher = weaker reporter binding
# appliedConditions: Eterna round: R107; input ligand: FMN 200 uM
Please go through the items and note down their apparent KD of K4 kissing-loop reporter.
Write down the value, and be sure its unit follows.

Data request, read-out apparent KD of K4 kissing-loop reporter, for AAAUUUAUAUUAGAUACCAGCAAAUUGAAAGUUUAUUAUGACAAGAGUGAUGUUCUUGUAUGCCCUUGGCAGCUGGUAUGGGUUU [KL-XTheo-B26] 112 nM

Data request, read-out apparent KD of K4 kissing-loop reporter, for GAUAUAGUGAUGUUAUAUAAGAAGGAGUUACGAGGACCGGUACGGCCGCCACUCGAAACGAGUGAUGAUUUGGGAGAUUGGGUUG [SSTryptA.O] 380 nM

Data request, read-out apparent KD of K4 kissing-loop reporter, for CCGACUGCAGGAAGGAGCGGCGGUUGGAGUGAUGUUCCGGGUAGUGAUGUUACCAAGAUCCGCCAGGUAGGUCGCCUGUUGCUCG [Same State Arginine B GF11] 134 nM

Data request, read-out apparent KD of K4 kissing-loop reporter, for UGUACCGAGUCAGGAUAUGGCGUCGAAAGACGAAACCAGUGAUGUUGGAAUAUCGACGAAAGUCGUCCAGAAGGGACUUGGUACU [FmnBS 17 #SwitchBubble #StaticStem #DoubleMagnetSystem] 153 nM

Data request, read-out apparent KD of K4 kissing-loop reporter, for CAGGCCGAGUGAUGUUCGGUCUGAGUGAUAAAGGAUAUAAGGGAUUUUAGAAGGUUAUCUAAACAGACCAAACAUCUAUCCACUC [theeternabot_exclusion_KL_FMN_A_16] 221 nM

Data request, read-out apparent KD of K4 kissing-loop reporter, for CGUUUAUAGCAGGAUACCAGUACCCAUAAAGUACGUUAAUAGUAGAGUGAUGUUCUAAAGUACCCUUGGCAGCUUCCCGUGACCC [ExTheophylB.W] 103 nM

Data request, read-out apparent KD of K4 kissing-loop reporter, for UCGGACCCUGGAGGAUAUGAGUCUAGUGAUGUUAGGCGGUCCAUGCGCGUGGCGCGUUAUGCCCUUUUAGAAGGCCAGGGUCCGA [#2 Exclusion - FMN B Attempt #15 (HarryS)] 113 nM

Data request, read-out apparent KD of K4 kissing-loop reporter, for AUUGAUAUAUAUAUUUGAUUUUUAUGUGAUACCAGACAAGGCAUAGUCCCUUGGCAGCACUUUAUAUUUACGAGUGAUGUUCGUA [JR_SSTheophyA_Sub025] 192 nM

Data request, read-out apparent KD of K4 kissing-loop reporter, for GUAUGUGGAAACACGUACUUGUAUCCUAAGCAGGAUAUGCGGAAACGCAGAAGGGCUACCAGCGAGUUUAUCCAGUGAUGUUGGA [Ex FMN A 12] 289 nM

Data request, read-out apparent KD of K4 kissing-loop reporter, for AAUUAAUGUAUAGAUUAUAUACAUUAAUCAGAGGAUAUGCUUUGUUGCAGAAGGCUGAAUGCAGUGAUGUUGCAAUUUUAAUUUA [JR_SSFMNA_Sub005] 50.8 nM

Data request, read-out apparent KD of K4 kissing-loop reporter, for UUUAUAAUGUCGGCCGCCACUGGAUUAAUAUUUGUAUAAUCUAGUUCUGAGUGAUGUUUAGAGUCCAGGACCGGGACAUUUGUUA [#10 K4 Tryptophan B Exclusion] 701 nM

Origin of values: the supplement of paper PMC9170038
